- Tested on: Trypanosoma cruzi parasites
- measurement-description: Trypanosoma cruzi in vitro IC50 (structure-activity analyses)
- Format: cell-based
- test-context: infection with Trypanosoma cruzi parasites for 72 hours and treatment with the compound for 72 hours
assay-metric: IC50

Query CC(C)(C)[S@@+]([O-])N1Cc2cc(C(=O)NCc3ccc4c(c3)OCO4)nc(-c3cccc(Br)c3)c2[C@H]1CCO yields IC50 of > 10000 nM

Kindly note the recorded IC50 for CCOC(=O)c1cc2c(c(-c3cccc(C#CCN(C)C)c3)n1)[C@@H](CCO)N([S@+]([O-])C(C)(C)C)C2 , which is 8500 nM

The molecule identified as CN(C)CC#Cc1cccc(-c2nc(C(=O)NCc3ccc4c(c3)OCO4)cc3c2[C@@H](CCO)N([S@@+]([O-])C(C)(C)C)C3)c1 registered its IC50 at 43.7 nM

Lab note: CN(C)CC#Cc1cccc(-c2nc(C(=O)N[C@H]3CCN(Cc4ccccc4)C3)cc3c2[C@@H](CCO)N([S@+]([O-])C(C)(C)C)C3)c1 gave IC50 of 28 nM

// IC50 value for CN(C)CC#Cc1cccc(-c2nc(C(=O)NCc3ccc4c(c3)OCO4)cc3c2[C@@H](CCO)N([S@+]([O-])C(C)(C)C)C3)c1 : 54 nM

IC50 in this record for CCOC(=O)c1cc2c(c(-c3cccc(C#CCN(C)C)c3)n1)CN([S@+]([O-])C(C)(C)C)C2 : 862 nM

====

- measurement-description: Plasma pharmacokinetics in female BALB/c mice (ip and po)
- Format: in vivo, mouse
- test-context: female, BALB/c, mouse; ip, 50 mg/kg, plasma, mice; read-out: PK (ip, 50 mg/kg) Area under the curve (AUC)
- Experimental: To evaluate the plasma pharmacokinetics of selected compounds, a group of eighteen female mice were administered divided into two groups; Group 1 (intraperitoneal (i.p.)) and Group 2 (oral administration (p.o.)) with compound 21 or compound 37 solution formulation at a dose of 50 mg/kg by both the routes in 5% NMP, 5% Solutol and 90% Normal saline. […]
Assign AUC to each entry below.
Note: unit µM·h is implicit; provide only the numeric part.

Value of AUC reported for the molecule CN(C)CC#Cc1cccc(-c2nc(C(=O)NCc3ccc4c(c3)OCO4)cc3c2[C@@H](CCO)N([S@+]([O-])C(C)(C)C)C3)c1 is 50.1

Recorded result, CN(C)CC#Cc1cccc(-c2nc(C(=O)N[C@@H]3CCN(Cc4ccccc4)C3)cc3c2[C@@H](CCO)N([S@+]([O-])C(C)(C)C)C3)c1 , AUC: 11.1

====

- measurement-description: Plasma pharmacokinetics in female BALB/c mice (ip and po)
- Type: in vivo, mouse
- test-context: female, BALB/c, mouse; ip, 50 mg/kg, plasma, mice; read-out: PK (ip, 50 mg/kg) Cmax
assay-metric: Cmax (µM)
Output spec: scalar in µM, unitless text.

Please fill in: Cmax reported for CN(C)CC#Cc1cccc(-c2nc(C(=O)N[C@@H]3CCN(Cc4ccccc4)C3)cc3c2[C@@H](CCO)N([S@+]([O-])C(C)(C)C)C3)c1 [compound 37] = 6.8

# Cmax (molecule: CN(C)CC#Cc1cccc(-c2nc(C(=O)NCc3ccc4c(c3)OCO4)cc3c2[C@@H](CCO)N([S@+]([O-])C(C)(C)C)C3)c1 [compound 21] ) is 19.8
